Numbers sourced from the RepoRT retention time repository.

test_name: HILIC, Waters ACQUITY UPLC BEH Amide, 100 × 2.1 mm, 1.7 µm; A: water + 0.125% formic acid + 10 mM ammonium formate; B: 5% water + 95% acetonitrile + 0.125% formic acid + 10 mM ammonium formate; gradient (min/%B) 0/100 2/100 7.7/70 9.5/40 10.25/30 12.75/100 17/100
reported_conditions: stereoisomer not certain
recorded_metric: LC retention time (min)

Past entries and their recorded results:
O=c1[nH]cnc2c1ncn2C1OC(CO)C(O)C1O (stereo not given) : 6.19
CN1CC(=O)NC1=N : 4.93
O=C(O)C(=O)Cc1c[nH]c2ccccc12 : 5.11

(A) O=c1c(-c2ccc(O)cc2)coc2cc(O)cc(O)c12 [4,5,7-Trihydroxyisoflavone]
(B) O=C1CCC(C(=O)N2CSCC2C(=O)O)N1 (stereo not given)
# returns the entry with the larger LC retention time; inputs A and B Use the label to indicate which entry you chose. B

* * *

test_name: HILIC, Waters ACQUITY UPLC BEH Amide, 100 × 2.1 mm, 1.7 µm; A: water + 0.125% formic acid + 10 mM ammonium formate; B: 5% water + 95% acetonitrile + 0.125% formic acid + 10 mM ammonium formate; gradient (min/%B) 0/100 2/100 7.7/70 9.5/40 10.25/30 12.75/100 17/100
reported_conditions: stereoisomer not certain
recorded_metric: LC retention time (min)

NCCCCN=C(N)N : 8.92

(1) O=C1C2CCCCC2C(=O)N1CCCCN1CCN(c2nsc3ccccc23)CC1 (centres undefined)
(2) Oc1ccc(C=Cc2cc(O)cc(O)c2)cc1
(3) O=S(=O)(O)CCNC(CO)(CO)CO
Rank order required: LC retention time, descending. List each label, following the requested order. 3, 1, 2

(a) CN(CCCN1c2ccccc2CCc2ccccc21)CC(=O)c1ccc(Cl)cc1
(b) CCC1OC(=O)C(C)C(OC2CC(C)(OC)C(O)C(C)O2)C(C)C(OC2OC(C)CC(N(C)C)C2O)C(C)(OC)CC(C)C(=O)C(C)C(O)C1(C)O (centres undefined)
Lab note: record which item had the higher LC retention time, a or b . Your choice should be expressed through its label. b
(b: 3 min, a: 1.91 min)

(P) NC(Cc1c[nH]c2ccc(O)cc12)C(=O)O (centres undefined) [5-Hydroxytryptophan]
(Q) O=C(CCNNC(=O)c1ccncc1)NCc1ccccc1 [Nialamide]
Which has the smaller recorded LC retention time, P or Q ? Field: selected label. Fill in the label of the entry you choose. Q

(I) CCC1C(=O)OCC1Cc1cncn1C (centres undefined)
(II) C[N+]1(C)CCCC1C(=O)[O-] (centres undefined) [Stachydrine]
Of I and II , which carries the smaller reported LC retention time figure? Record your answer as the label of the chosen record. I

* * *

test_name: HILIC, Waters ACQUITY UPLC BEH Amide, 100 × 2.1 mm, 1.7 µm; A: water + 0.125% formic acid + 10 mM ammonium formate; B: 5% water + 95% acetonitrile + 0.125% formic acid + 10 mM ammonium formate; gradient (min/%B) 0/100 2/100 7.7/70 9.5/40 10.25/30 12.75/100 17/100
reported_conditions: stereoisomer not certain
recorded_metric: LC retention time (min)

(I) COc1cc(C=CC=O)ccc1O
(II) CN(C)CCC=C1c2ccccc2COc2ccc(CC(=O)O)cc21
(III) CN(C)CCOC(C)(c1ccccc1)c1ccccn1 (stereo not given)
(IV) NC(C(=O)NC1C(=O)N2C(C(=O)O)=C(CSc3cn[nH]n3)CSC12)c1ccc(O)cc1 (stereo not given)
Hey, can you sort those molecules up there by LC retention time, smallest first? Quick reminder: the answer is the labels in the order asked. I, III, II, IV

* * *

test_name: HILIC, Waters ACQUITY UPLC BEH Amide, 100 × 2.1 mm, 1.7 µm; A: water + 0.125% formic acid + 10 mM ammonium formate; B: 5% water + 95% acetonitrile + 0.125% formic acid + 10 mM ammonium formate; gradient (min/%B) 0/100 2/100 7.7/70 9.5/40 10.25/30 12.75/100 17/100
reported_conditions: stereoisomer not certain
recorded_metric: LC retention time (min)

COc1ccccc1N1CCN(CCCNc2cc(=O)n(C)c(=O)n2C)CC1 : 4.58
O=CCc1ccccc1 : 5.4
CC12CCC(=O)C=C1CCC1C2C(O)CC2(C)C(C(=O)CO)CCC12 (stereo unspecified) : 1.25
NCCc1ccccc1 : 4.87
CS(=O)CCCCC(=NOS(=O)(=O)O)SC1OC(CO)C(O)C(O)C1O (stereo unspecified) : 7.37
OCCc1c[nH]c2ccc(O)cc12 [5-Hydroxytryptophol] : 5.93

(P) CCCSc1ccc2nc(NC(=O)OC)[nH]c2c1
(Q) CNc1nc2c(ncn2C2OC(CO)C(O)C2O)c(=O)[nH]1 (stereo unspecified)
(R) Cc1cn(C2OC(CO)C(O)C2O)c(=O)[nH]c1=O (stereo unspecified)
Falling order of LC retention time, please. A complete answer lists every label in the requested sequence. Q, R, P

(a) CC(C)CC(N)C(=O)NC(C)C(=O)O (stereo unspecified)
(b) CCCCCCCCO
Param metric = LC retention time; output whichever of a , b has the minimum value. In your reply, give the label of the chosen option. a

* * *

test_name: HILIC, Waters ACQUITY UPLC BEH Amide, 100 × 2.1 mm, 1.7 µm; A: water + 0.125% formic acid + 10 mM ammonium formate; B: 5% water + 95% acetonitrile + 0.125% formic acid + 10 mM ammonium formate; gradient (min/%B) 0/100 2/100 7.7/70 9.5/40 10.25/30 12.75/100 17/100
reported_conditions: stereoisomer not certain
recorded_metric: LC retention time (min)

(P) CN1CCCC(n2nc(Cc3ccc(Cl)cc3)c3ccccc3c2=O)CC1 (stereo not given) [Azelastine]
(Q) CC12CCC3c4ccc(O)cc4CCC3C1CCC2=O (stereo not given) [1,3,5(10)-Estratrien-3-ol-17-one]
Dear colleague, could you let me know whether P or Q has the lower recorded LC retention time? Thanks. Choose, then provide that item's label. Q

(a) CC=CC(=O)N(CC)c1ccccc1C [Crotamiton]
(b) Cc1cnc(=O)[nH]c1N [5-Methylcytosine]
Compare LC retention time: is it lower for a or for b ? Kindly give the label for the entry you pick. a

(a) NC(CCC(=O)O)C(=O)O (stereo not given) [Glutamic acid]
(b) N#Cc1ccc(C(c2ccc(C#N)cc2)n2cncn2)cc1 [Letrozol]
(c) COc1cn(C2OC(CO)C(O)C2O)c(=O)[nH]c1=O (stereo not given) [5-Methoxyuridine]
Could you please order the items by LC retention time, going from the lowest number to the highest? Would you mind listing the labels in the order requested? b, c, a

* * *

test_name: HILIC, Waters ACQUITY UPLC BEH Amide, 100 × 2.1 mm, 1.7 µm; A: water + 0.125% formic acid + 10 mM ammonium formate; B: 5% water + 95% acetonitrile + 0.125% formic acid + 10 mM ammonium formate; gradient (min/%B) 0/100 2/100 7.7/70 9.5/40 10.25/30 12.75/100 17/100
reported_conditions: stereoisomer not certain
recorded_metric: LC retention time (min)

Below: 3 compounds and their reported LC retention time.
Cn1c(=O)[nH]c2[nH]c(=O)[nH]c2c1=O : 2.18
NCCCNCCCCNCCCN : 7.24
NC(=O)CS(=O)C(c1ccccc1)c1ccccc1 (stereo unspecified) : 1.27

(A) CC(=O)NCCc1cnc[nH]1
(B) NC(CSCC(=O)O)C(=O)O (stereo unspecified)
(C) CC(=O)N1C(=O)C(=O)c2ccccc21
Reorder the items by LC retention time, least to greatest. List the labels in the requested order. C, A, B
(C: 2.4 min, A: 6 min, B: 9.04 min)

* * *

test_name: HILIC, Waters ACQUITY UPLC BEH Amide, 100 × 2.1 mm, 1.7 µm; A: water + 0.125% formic acid + 10 mM ammonium formate; B: 5% water + 95% acetonitrile + 0.125% formic acid + 10 mM ammonium formate; gradient (min/%B) 0/100 2/100 7.7/70 9.5/40 10.25/30 12.75/100 17/100
reported_conditions: stereoisomer not certain
recorded_metric: LC retention time (min)

CC(=O)OCc1ccccc1 [Benzylacetate] : 8.71

(a) NC(=O)NC(NC(N)=O)C(=O)O
(b) COCc1c(C(C)C)nc(C(C)C)c(C=CC(O)CC(O)CC(=O)O)c1-c1ccc(F)cc1 (stereo not given)
Which value of LC retention time is greater, the one for a or the one for b ? Refer to your chosen item by its label in the answer. a

* * *

test_name: HILIC, Waters ACQUITY UPLC BEH Amide, 100 × 2.1 mm, 1.7 µm; A: water + 0.125% formic acid + 10 mM ammonium formate; B: 5% water + 95% acetonitrile + 0.125% formic acid + 10 mM ammonium formate; gradient (min/%B) 0/100 2/100 7.7/70 9.5/40 10.25/30 12.75/100 17/100
reported_conditions: stereoisomer not certain
recorded_metric: LC retention time (min)

Please review the entries below; each comes with its answer.
CC(O)C(C)C(=O)O (centres undefined) [Methyl-3-hydroxybutyric acid] : 6.22
CC(C)CC(NC(=O)C(C)N)C(=O)O (centres undefined) [Ala-Leu] : 7.6

(I) COC1C(CO)OC(n2cnc3c(=O)[nH]c(N)nc32)C1O (centres undefined) [3'-O-Methylguanosine]
(II) CC(C)C(=O)NCC(=O)O [N-Isobutyrylglycine]
(III) CCCCCCCCCCCCCCCC(=O)OC(CO)CO [2-Palmitoylglycerol]
(IV) CCCCc1oc2ccccc2c1C(=O)c1cc(I)c(OCCN(CC)CC)c(I)c1 [Amiodarone]
Put these in order: smallest LC retention time first, largest last. In your reply, arrange the labels in the requested order. III, IV, II, I

(A) Nc1nc2[nH]c(=O)cnc2c(=O)[nH]1 [Isoxanthopterin]
(B) COC(=O)C1=C(C)NC(C)=C(C(=O)OC)C1c1ccccc1[N+](=O)[O-] [Nifedipine]
(C) Nc1nc2c(ncn2C2CC(O)C(COP(=O)(O)O)O2)c(=O)[nH]1 (centres undefined) [2'-Deoxyguanosine 5'-monophosphate]
(D) Nc1ccn(C2CSC(CO)O2)c(=O)n1 (centres undefined) [Lamivudine]
List by increasing LC retention time. Output spec: a listing of the labels in the requested order. B, D, A, C

(a) COc1cc(C=Cc2ccc(O)cc2)cc(OC)c1 [Pterostilbene]
(b) NCCCC(N)C(=O)O (centres undefined) [Ornithine]
(c) COCC1OC(n2cc(C)c(=O)[nH]c2=O)CC1O (centres undefined) [5'-O-Methylthymidine]
(d) CN1CCC(=C2c3ccccc3C=Cc3ccccc32)CC1 [Cyproheptadine]
(e) NCCc1ccc(O)c(O)c1 [Dopamine]
Hi! Can you put these in order of LC retention time, lowest number first? Answer with the labels in sequence, matching the requested order. a, c, d, e, b
(a: 0.98 min, c: 1.46 min, d: 2.31 min, e: 6.4 min, b: 9.6 min)

(a) CC(=O)Nc1ccccc1 [Acetanilide]
(b) O=C1OC(CO)C(O)C(O)C1O (centres undefined) [Gluconolactone]
I'm curious whether a or b has the smaller LC retention time number. Which is it? Pick one; state its label. a
(a: 1.11 min, b: 8.15 min)

(P) C=C1CCOC1=O [alpha-Methylene-gamma-butyrolactone]
(Q) CC(=O)NCCCCC(N)C(=O)O (centres undefined) [N-epsilon-Acetyllysine]
// compare measured LC retention time between P and Q ; output the lower one Refer to your chosen item by its label in the answer. P

(P) CC(=O)C1(O)CCC2C3CC(C)C4=CC(=O)CCC4(C)C3CCC21C (centres undefined) [Medroxyprogesterone]
(Q) C[S+](CCC(N)C(=O)[O-])CC1OC(n2cnc3c(N)ncnc32)C(O)C1O (centres undefined) [S-Adenosyl-methionine]
Among P and Q , which shows a numerically higher LC retention time result? Kindly state the label of the option you pick. Q

(a) CCCc1nc2c(C)cc(-c3nc4ccccc4n3C)cc2n1Cc1ccc(-c2ccccc2C(=O)O)cc1 [Telmisartan]
(b) CN1CCN2c3ncccc3Cc3ccccc3C2C1 (centres undefined) [Mirtazapine]
(c) NC1CCN(c2cccc(Cl)n2)CC1
Order the items by recorded LC retention time; the first position goes to the largest value. Answer format: list of labels, ordered as asked. c, b, a

(1) COc1ccc2[nH]cc(CCO)c2c1 [5-Methoxytryptophol]
(2) CCCCCC(=O)OC(CC(=O)[O-])C[N+](C)(C)C [Hexanoyl-L-carnitine]
(3) CSCC1OC(n2cnc3c(N)ncnc32)C(O)C1O (centres undefined) [5'-Methylthioadenosine]
Arrange these 3 molecules in increasing order of LC retention time. Sort the labels as requested; that list is your answer. 1, 3, 2
